system: cultured rat TG neurons; assay: CGRP release from cultured rat TG neurons evoked by 9-HODE; type: cell-based; details: read-out: EC50 of increase in CGRP release
readout_kind: EC50

[Q] Given the compound CCCCC/C=C\C=C\C(O)CCCCCCCC(=O)O (stereo not shown) [9-HODE, 9-hydroxyoctadecadienoic acid] , what is its reported EC50?
[A] ~300 nM
